System: HL-60(TB) leukemia
Test: NCI-60 one-dose screen, 48 h (100 = growth as untreated, 0 = no growth, -100 = all killed)
Conditions: 10 µM unless noted
This is part of a sample that, as a whole, favours compounds with a hit. Of some 83,000 tested, about 20% had one in any assay.
readout_type: growth (%)
Give bare numbers, in %.

compound | readout_number
COc1cccc(/C=C/C(=O)/C=C(/C=C/c2cccc(OC)c2OC)OB(F)F)c1OC | 26.1

Go through the items and report each one's growth.
1. COc1ccccc1-n1c(-c2ccc(O)cc2C)cn2c3c(=O)[nH]c(=O)n(C)c3nc12
2. O=C(N/N=C/c1ccc(O)c(O)c1)c1sc2ccccc2c1Cl
3. Cc1ccc(Cc2c(C=O)nc(N)[nH]c2=O)c2ccccc12

1: 79.9; 2: 4.17; 3: 36.1

Record growth for all entries; do not skip any.
1. Cc1nc(/N=C(\N)NC(=O)Nc2ccccc2Cl)sc1C
2. Cc1ccc(C(=O)/C=C/c2ccccc2)s1

3.77
97.1

Could I get growth for every one of these entries?
1. COc1cc2c(cc1OCCCCCOc1ccc(-n3c(C)nc4ccccc4c3=O)cc1)N=C[C@@H]1CCCN1C2=O
2. CC(c1ccccc1)N1C(=O)C(C2SC(=S)N(C(C)c3ccccc3)C2=O)SC1=S (stereo not given)
3. CC(C)CCSC1=CC(=O)c2ccccc2C1=O
4. CN1CCN(c2ccc3nc(-c4[nH]ncc4Nc4ncnc5c4OCCCN5)[nH]c3c2)CC1

1. -33.8
2. 78.2
3. 13.3
4. -28.7

----------
Test system: HL-60(TB) leukemia
Experiment: NCI-60 one-dose screen, 48 h
Details: 10 µM unless noted
Protocol: Growth inhibition of the HL-60(TB) human tumor cell line is measured as a screen for anti-cancer activity. Cells are grown in 96 well plates and exposed to the test compound for 48 hours. Compounds are tested at a single concentration, which is 10^-5 M for most compounds. The reported endpoint is percent growth (GI% or GIPRCNT), where numbers from 0 - 100% represent growth inhibition, and numbers from -100% - 0 represent cell death. For example, a value of 40 represents 60% growth inhibition. […]
About 83,000 compounds went through this panel and 20% of them were active in at least one assay; those are over-represented in the sample as a whole. The source made the active and inactive calls. Rule for the calls: active = growth percent below 10; inactive = the rest.
Bench note: report the call from active, inactive

Example entries begin here.
compound | assigned_category
COc1ccc(C2CC(c3cccs3)=NN2c2ccc(S(=O)(=O)NC(=O)NCc3cccc(OC)c3)cc2)cc1 (stereo not given) | inactive
CCN(CC)CCN1CC(O)=C(c2nc(-c3ccc(Cl)cc3)cs2)C1=N | active
COc1ccc(-c2c(-c3cc4c(c(OC)c3OC)OCO4)noc2N)cc1 | inactive
CN(C)c1ccc2oc(=O)c3ccccc3c2c1 | inactive
O=C(NC1CCCC1)c1ccc(N2CCC(NCc3cccc(C(F)(F)F)c3)CC2)cc1 | inactive

Hey, what did the test say about COC(=O)c1nc(N)nc(C(=O)OC)c1C(=O)c1cccc2ccccc12 ?
inactive

Could you kindly confirm the outcome this assay logged for COC(=O)c1nc(-c2ccccc2)oc1S(=O)(=O)N1CCC(C(N)=O)CC1 ?
active

Recorded call for Cc1nn(CCO)c(C)c1N=[N+]([O-])c1c(C)nn(CCO)c1C ?
active

# fetch the recorded call for O=C(CSc1nc(-c2ccc(Cl)cc2)cn1-c1ccc(Cl)cc1)c1ccc(Br)cc1 here
inactive

Test call, this compound: O=C(CCNNC(=O)c1ccncc1)NCc1ccccc1
inactive

Any idea what this test logged for COc1cc(/C=C2\CCC/C(=C\c3ccc(OCC4CO4)c(OC)c3)C2=O)ccc1OCC1CO1 (stereo not given) ?
active

Would you mind telling me which call this test gave O=C(/C=C/c1ccccc1)Nc1ncc(Cc2ccccc2Cl)s1 ?
active

Which outcome was assigned to O=C(O)CCCCCCCCCCN1C(=O)/C(=C2/C(=O)N(CC(=O)O)c3ccc(Br)cc32)SC1=S in this test?
active

----------
System: HL-60(TB) leukemia
Assay: NCI-60 one-dose screen, 48 h (100 = growth as untreated, 0 = no growth, -100 = all killed)
Conditions: 10 µM unless noted
About 83,000 compounds went through this panel and 20% of them were active in at least one assay; those are over-represented in the sample as a whole.
Use TRUE when the recorded growth is no lower than 20%; use FALSE when it is lower.

compound | tgt | assigned_category
COc1cc(-c2csc(NC(=O)Nc3ccc(C(F)(F)F)cc3)n2)cc(OC)c1OC | HL-60(TB) leukemia | FALSE
COc1ccc(C(=S)N2CCN(c3ccc(Cl)cc3)CC2)cc1 | HL-60(TB) leukemia | TRUE
Cc1c(Cl)c(C)c(Cc2c(C)c(Cl)c(C)c(Cl)c2O)c(O)c1Cl | HL-60(TB) leukemia | FALSE
OC(COCc1ccccc1)COCc1ccccc1 | HL-60(TB) leukemia | TRUE
CS(=O)(=O)c1ccc(-c2cnc3ccc(-c4cccc(S(C)(=O)=O)c4)nn23)cc1 | HL-60(TB) leukemia | FALSE
C=C(C)[C@@H]1CC[C@]2(COC(=O)c3cccnc3)CC[C@]3(C)[C@H](CC[C@@H]4[C@@]5(C)CCCN(C(=O)c6cccnc6)C(C)(C)[C@@H]5CC[C@]43C)[C@@H]12 | HL-60(TB) leukemia | FALSE
CCN1/C(=C/C=C/C=C/c2sc3ccccc3[n+]2CC)Sc2ccccc21 | HL-60(TB) leukemia | FALSE
COc1ccc(-c2nc(SCC(C)C)nc(Nc3ccc([N+](=O)[O-])cc3)c2C#N)cc1 | HL-60(TB) leukemia | TRUE
Cc1ccc2c(c1)C(=O)c1c-2c(OCCCN(C)C)nc2ccccc12 | HL-60(TB) leukemia | TRUE
CC1=C(O)C(=O)C(c2c(C)cc(C)c(Br)c2C)=C(O)C1=O | HL-60(TB) leukemia | TRUE

Tell me whether growth is at least 20% here: COc1cc(-c2[nH]ncc2Nc2ccc(Cl)cc2)cc(OC)c1OC
TRUE

Given NC(=S)N=Nc1c(O)c2ccccc2c2ccccc12 , state whether its growth is at least 20%.
TRUE

Check the entry O=S(=O)(NCCCNc1nccc(-c2cn(-c3ccccc3)nc2-c2ccc(Cl)c(O)c2)n1)c1ccccc1 : does growth equal or exceed 20%?
TRUE

Quick check: does Clc1ccc2nc(-c3ccc(-c4ccc(/C=N/NC5=NCCN5)cc4)s3)cn2c1 have growth greater than or equal to 20%?
TRUE

Decide: growth of COc1ccc(C2C(c3ccccc3)C(=O)N2c2cc(OC)c(OC)c(OC)c2)cc1I (stereo unspecified) >= 20%?
FALSE

Reported growth at or above 20%? CCN1C(=O)N(CC)C2C1NN=c1s/c(=C3\C(=O)N(CCC(C)C)c4ccccc43)c(=O)n12 (stereo unspecified)
FALSE

----------
Exercise: for every item that follows, state its recorded growth.
Tested on: A498 renal
Assay: NCI-60 one-dose screen, 48 h (100 = growth as untreated, 0 = no growth, -100 = all killed)
Details: 10 µM unless noted
This is part of a sample that, as a whole, favours compounds with a hit. Of some 83,000 tested, about 20% had one in any assay.
Give bare numbers, in %.

Sample records with growth:
compound | unit_of_measurement | readout_number
CC(C)(C)[Si](C)(C)OC1[C@@H](O[Si](C)(C)C(C)(C)C)[C@@H](CNC(=O)NC(=O)CF)O[C@H]1n1cnc2c(NC(=O)Nc3ccccc3)ncnc21 (stereo not given in full) | % | 70.2
O=C(CCc1ccco1)NC1CCN(CC2(c3ccc(Cl)cc3)CCC2)CC1 | % | -15
Cc1ccc(C[As+](c2ccccc2)(c2ccccc2)c2ccccc2)cc1 | % | -11
CCCCCCCC(=O)OCC/C=C/C1OC1C1OC(=O)/C=C\C=C\c2nc(oc2C)/C=C(/C)CCC2OC2C1OC(=O)NC(C)=O (stereo not given) | % | -82.5

Now let's try a different one.
Fill blank: measured growth of the compound CC1CC=CCC12C(=O)NC(=S)NC2=O (stereo not given) is ____.
72.9

----------
System: HL-60(TB) leukemia
Assay: NCI-60 one-dose screen, 48 h
Settings: 10 µM unless noted
Compounds without any hit were thinned out: in the full panel of roughly 83,000, 20% have a hit. Active and inactive are the calls of the source. How the source made its calls: active means growth percent below 10; inactive means the rest.
Response enum: active, inactive

Record excerpt, results attached:
smiles_record | assigned_category
CC[C@H](CO)Nc1nc(NCc2ccccc2)c2ncn(C(C)C)c2n1 | inactive
CC1=CC(=O)c2cccc(NC3=NCCO3)c21 | inactive
Cc1csc(Nc2nc(-c3ccc(Cl)cc3)nc(C(Cl)(Cl)Cl)n2)n1 | inactive
COc1ccc(S(=O)(=O)n2ccc(-c3ccc4c(c3)CCC(C)(C)O4)n2)cc1OC | inactive

Next up:
Could you check what this test reported for COc1ccc2c(CCCc3ccc(Cl)cc3Cl)c3[n+](cc2c1OC)CCc1cc2c(cc1-3)OCO2 ?
active
